Measured Plant response rating, Rape, listed per entry.
# System: rape
# ASSAY NOTES: Test B pre/postemergence rape
# Format: in vivo, Brassica napus
# CONDITIONS USED: Postemergence, Rate 500 g/ha; scale of 0 to 10 where 0 is no effect and 10 is complete control

{"COMPOUND": "C=C(Cn1c(=O)on(C(=O)N(c2ccccc2)C(C)C)c1=O)c1cccc(Cl)n1", "Plant response rating, Rape": 0}
{"COMPOUND": "CC(C)N(C(=O)n1oc(=O)n(C[Si](C)(C)C)c1=O)c1ccccc1", "Plant response rating, Rape": 0}
{"COMPOUND": "CCOP(=O)(Cn1c(=O)on(C(=O)N(c2ccc(Cl)cc2)C(C)C)c1=O)OCC", "Plant response rating, Rape": 0}
{"COMPOUND": "CCC(C)n1c(=O)on(C(=O)N(c2ccccc2)C(C)C)c1=O (stereo not drawn)", "Plant response rating, Rape": 3}
{"COMPOUND": "CC(C)N(C(=O)n1oc(=O)n(CNC(=O)c2ccccc2)c1=O)c1ccccc1", "Plant response rating, Rape": 0}
{"COMPOUND": "CC(C)N(C(=O)n1oc(=O)n(CCC2OCCCO2)c1=O)c1ccccc1", "Plant response rating, Rape": 4}

====

Measured Rice plant response rating, listed per entry.
# Tested on: rice
# ASSAY NOTES: Test B flood test rice
# Assay type: in vivo, Oryza sativa
# CONDITIONS USED: flood test, listed under Postemergence, Rate 250 g/ha; scale 0 to 10, 0 no effect, 10 complete control
OBSERVED PROPERTY: Rice plant response rating

{"STRUCTURE": "CCc1cccc(C)c1-n1c(=O)on(C(=O)N(c2ccc(F)cc2)C(C)C)c1=O", "REPORTED MEASUREMENT": 0}
{"STRUCTURE": "Cc1ccccc1-n1c(=O)on(C(=O)N(c2ccc([N+](=O)[O-])cc2)C(C)C)c1=O", "REPORTED MEASUREMENT": 0}
{"STRUCTURE": "COc1cccc(C)c1-n1c(=O)on(C(=O)N(c2ccc(F)cc2F)C(C)C)c1=O", "REPORTED MEASUREMENT": 0}
{"STRUCTURE": "Cc1ccccc1Cn1c(=O)on(C(=O)N(c2ccc(F)cc2F)C(C)C)c1=O", "REPORTED MEASUREMENT": 0}
{"STRUCTURE": "Cc1cccc(C)c1-n1c(=O)on(C(=O)N(c2ccc(F)cc2)C(C)C)c1=O", "REPORTED MEASUREMENT": 2}

====

# System: rape
# ASSAY NOTES: Test B pre/postemergence rape
# Assay type: in vivo, Brassica napus
# CONDITIONS USED: Postemergence, Rate 500 g/ha; scale 0 to 10, 0 is no effect, 10 is complete control

{"COMPOUND": "CC(C)N(C(=O)n1oc(=O)n(CCNC(=O)CCl)c1=O)c1ccccc1 [Compound 492]", "Plant response rating, Rape": 0}
{"COMPOUND": "COC(=O)CCCn1c(=O)on(C(=O)N(c2ccc(F)cc2F)C(C)C)c1=O [Compound 513]", "Plant response rating, Rape": 7}
{"COMPOUND": "CC(C)N(C(=O)n1oc(=O)n(C(C)C(=O)c2ccccc2)c1=O)c1ccc(F)cc1F (stereo not shown) [Compound 511]", "Plant response rating, Rape": 4}
{"COMPOUND": "CC(C)N(C(=O)n1oc(=O)n(CCCC(F)(F)F)c1=O)c1ccc(F)cc1F [Compound 526]", "Plant response rating, Rape": 4}
